# PROTOCOL TEXT: Aqueous solubility at pH 7.0
# Assay type: physicochemical
Below: a set of entries, each annotated with reported solubility.
Write the answer as a number in µg/mL, unit excluded.

Some compounds with known solubility results, for comparison:
QUERY SMILES	solubility (µg/mL)
CCN(CC)c1nc2sc3c(OC)nnnc3c2c2c1CCCC2	0.08
COCCN(CCOC)c1nc2sc3c(OC)nnnc3c2c2c1CCCC2	0.79
COc1nnnc2c1sc1nc(N3CCOCC3)c3c(c12)CCCC3	0.08
COCCOc1nnnc2c1sc1nc(N3CCOCC3)c3c(c12)CCCC3	0.21
COCCOc1nnnc2c1sc1nc(N(C)CCOC)c3c(c12)CCCC3	0.48
COCCN(C)c1nc2sc3c(OC)nnnc3c2c2c1CCCC2	0.32

Data request: # get_value(readout='solubility', item= `COCCNc1nc2sc3c(OC)nnnc3c2c2c1CCCC2` )
Data returned: 0.14

* * *

# PROTOCOL TEXT: Partition coefficient, log P of the compound
# Assay type: physicochemical
# CONDITION: octanol/water
METRIC: logP

Data request: Param item = `COc1nnnc2c1sc1nc(N3CCOCC3)c3c(c12)CCCC3` ; retrieve measured logP.
Data returned: 4.25

* * *

# PROTOCOL TEXT: Partition coefficient, log P by chromatographic hydrophobicity method
# Assay type: physicochemical
# CONDITION: octanol/water
compounds and their reported logP
A bare number is all that is needed in reply.

Solved entries (count: 6):
QUERY SMILES	MEASURED RESULT
COCCNc1nc2sc3c(OC)nnnc3c2c2c1CCCC2	3.9
COCCOc1nnnc2c1sc1nc(N(C)CCOC)c3c(c12)CCCC3	4.12
COCCOc1nnnc2c1sc1nc(N3CCOCC3)c3c(c12)CCCC3	3.82
COc1nnnc2c1sc1nc(N3CCOCC3)c3c(c12)CCCC3	4.06
CCN(CC)c1nc2sc3c(OC)nnnc3c2c2c1CCCC2	5.32
COCCN(CCOC)c1nc2sc3c(OC)nnnc3c2c2c1CCCC2	4.09

--- query ---
Data request: Name the reported logP value associated with the compound `COCCN(C)c1nc2sc3c(OC)nnnc3c2c2c1CCCC2`
Data returned: 4.31
